- assay-system: Alpha-ketoglutarate-dependent dioxygenase FTO (Homo sapiens)
- Sequence (Q9C0B1 whole entry): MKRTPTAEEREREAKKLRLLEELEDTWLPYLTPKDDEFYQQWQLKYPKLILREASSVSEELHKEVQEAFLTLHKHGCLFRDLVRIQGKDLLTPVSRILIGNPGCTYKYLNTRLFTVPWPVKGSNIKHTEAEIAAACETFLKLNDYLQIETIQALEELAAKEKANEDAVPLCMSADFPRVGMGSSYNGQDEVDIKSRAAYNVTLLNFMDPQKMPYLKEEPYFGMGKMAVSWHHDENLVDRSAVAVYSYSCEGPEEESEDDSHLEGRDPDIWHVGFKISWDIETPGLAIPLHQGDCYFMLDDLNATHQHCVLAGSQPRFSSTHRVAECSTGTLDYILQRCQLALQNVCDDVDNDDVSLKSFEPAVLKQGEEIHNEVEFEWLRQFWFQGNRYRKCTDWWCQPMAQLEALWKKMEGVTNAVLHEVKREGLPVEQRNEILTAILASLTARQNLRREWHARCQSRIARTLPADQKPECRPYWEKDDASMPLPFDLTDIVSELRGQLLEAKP
- experiment-description: Inhibition of FTO (unknown origin) mediated m6A methylation by HPLC analysis
measured-endpoint: IC50 (nM)
Answers are plain numbers, in nM.

Fill in the blank: the reported IC50 of Cc1noc(C)c1-c1cc(Cl)c(Nc2ccccc2C(=O)NO)c(Cl)c1 is ____.
2600
